Reference for the values: BindingDB's records for doi:10.3109/14756366.2011.643303

Provide the reported Ki of each item.
- experimental.system: Carbonic anhydrase 4 (Homo sapiens)
- Sequence (P22748 whole entry): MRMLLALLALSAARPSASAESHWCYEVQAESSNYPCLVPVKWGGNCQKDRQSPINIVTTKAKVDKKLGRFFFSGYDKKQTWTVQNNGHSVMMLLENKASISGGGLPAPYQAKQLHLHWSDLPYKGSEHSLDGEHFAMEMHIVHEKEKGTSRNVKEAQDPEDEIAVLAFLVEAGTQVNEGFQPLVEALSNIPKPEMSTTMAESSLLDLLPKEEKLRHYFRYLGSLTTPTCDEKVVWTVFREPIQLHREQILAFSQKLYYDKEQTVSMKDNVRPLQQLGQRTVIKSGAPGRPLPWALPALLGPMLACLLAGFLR

compound="Oc1cc(O)c2c(c1)O[C@H](c1ccc(O)c(O)c1)[C@@H](O)C2 [(+)-Catechin]" result="5.6 µM"

Would you mind giving Ki for every compound in the list below?
1. O=c1c(O)c(-c2ccc(O)c(O)c2)oc2cc(O)cc(O)c12
2. O=c1cc(-c2ccc(O)c(O)c2)oc2cc(O)cc(O)c12
3. O=c1cc(-c2ccc(O)cc2)oc2cc(O)cc(O)c12 [Naringenin, 18]
4. Oc1ccccc1
5. O=c1c(O)c(-c2ccc(O)cc2O)oc2cc(O)cc(O)c12

Output line:
13.8 µM
4.4 µM
9.1 µM
14.3 µM
15.7 µM

----------
The following molecules have recorded Ki on Carbonic anhydrase 3 (Bos taurus).
Sequence (Q3SZX4 whole entry): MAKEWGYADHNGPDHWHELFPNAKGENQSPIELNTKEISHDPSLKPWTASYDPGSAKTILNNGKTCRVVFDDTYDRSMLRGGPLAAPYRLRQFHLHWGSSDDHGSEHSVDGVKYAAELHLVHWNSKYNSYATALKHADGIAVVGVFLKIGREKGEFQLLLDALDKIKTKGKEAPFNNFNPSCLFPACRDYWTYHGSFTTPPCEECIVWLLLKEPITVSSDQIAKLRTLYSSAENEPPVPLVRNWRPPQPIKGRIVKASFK
Answers are plain numbers, in µM.

Study these solved cases before continuing.
molecule=O=c1cc(-c2ccc(O)c(O)c2)oc2cc(O)cc(O)c12 experimental_readout=Ki quantitative_readout=5.4
molecule="Oc1ccccc1O [1,2-Dihydroxybenzene, XI]" experimental_readout=Ki quantitative_readout=6.5
molecule=O=c1cc(-c2ccc(O)cc2)oc2cc(O)cc(O)c12 experimental_readout=Ki quantitative_readout=11.6
molecule="Oc1cc(O)c2c(c1)O[C@H](c1ccc(O)c(O)c1)[C@@H](O)C2 [(+)-Catechin]" experimental_readout=Ki quantitative_readout=2.2
molecule=Oc1ccccc1 experimental_readout=Ki quantitative_readout=4.6

Would you mind giving Ki for every molecule in the list below?
1. Oc1cccc(O)c1
2. O=c1c(O)c(-c2ccc(O)c(O)c2)oc2cc(O)cc(O)c12

Output line:
1: 219; 2: 9.1

----------
The following compounds have recorded pKi on Carbonic anhydrase 1 (Homo sapiens, UniProt P00915).
Sequence (P00915 whole entry): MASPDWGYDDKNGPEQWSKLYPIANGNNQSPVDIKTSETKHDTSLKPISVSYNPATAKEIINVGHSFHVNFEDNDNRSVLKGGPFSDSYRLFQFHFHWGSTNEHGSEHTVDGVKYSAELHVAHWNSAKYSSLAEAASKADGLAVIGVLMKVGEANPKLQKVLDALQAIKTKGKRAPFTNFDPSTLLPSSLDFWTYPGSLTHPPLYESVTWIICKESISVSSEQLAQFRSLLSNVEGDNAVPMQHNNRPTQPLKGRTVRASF
Give bare numbers, as −log10 of the molar value.

Study these solved cases before continuing.
compound="Oc1cc(O)c2c(c1)O[C@H](c1ccc(O)c(O)c1)[C@@H](O)C2 [(+)-Catechin]" experimental_system="Carbonic anhydrase 1 (Homo sapiens, UniProt P00915)" quantitative_readout=5.17
compound=O=c1cc(-c2ccc(O)c(O)c2)oc2cc(O)cc(O)c12 experimental_system="Carbonic anhydrase 1 (Homo sapiens, UniProt P00915)" quantitative_readout=5.66
compound=Oc1ccccc1 experimental_system="Carbonic anhydrase 1 (Homo sapiens, UniProt P00915)" quantitative_readout=4.76
compound=O=c1c(O)c(-c2ccc(O)c(O)c2)oc2cc(O)cc(O)c12 experimental_system="Carbonic anhydrase 1 (Homo sapiens, UniProt P00915)" quantitative_readout=5.44
compound=O=c1cc(-c2ccc(O)cc2)oc2cc(O)cc(O)c12 experimental_system="Carbonic anhydrase 1 (Homo sapiens, UniProt P00915)" quantitative_readout=5.39

// next entry
Input line: If you can, please state the reported pKi value of O=c1c(O)c(-c2ccc(O)cc2O)oc2cc(O)cc(O)c12 .
Output line: 4.89

----------
The following compounds have recorded pKi on Carbonic anhydrase 2 (Homo sapiens, UniProt P00918).
Give bare numbers, as −log10 of the molar value.

Study these solved cases before continuing.
compound=O=c1cc(-c2ccc(O)cc2)oc2cc(O)cc(O)c12 quantitative_readout=5.57
compound=O=c1cc(-c2ccc(O)c(O)c2)oc2cc(O)cc(O)c12 quantitative_readout=6.13
compound="Oc1ccccc1O [1,2-Dihydroxybenzene, XI]" quantitative_readout=4.94

Would you mind giving pKi for every compound in the list below?
1. Oc1ccccc1
2. O=c1c(O)c(-c2ccc(O)c(O)c2)oc2cc(O)cc(O)c12

Output line:
1. 5.13
2. 5.62
